Target: Src (Homo sapiens, UniProt P12931)
Construct: purchased Millipore Inc (Dundee, UK)
Sequence (P12931 whole entry): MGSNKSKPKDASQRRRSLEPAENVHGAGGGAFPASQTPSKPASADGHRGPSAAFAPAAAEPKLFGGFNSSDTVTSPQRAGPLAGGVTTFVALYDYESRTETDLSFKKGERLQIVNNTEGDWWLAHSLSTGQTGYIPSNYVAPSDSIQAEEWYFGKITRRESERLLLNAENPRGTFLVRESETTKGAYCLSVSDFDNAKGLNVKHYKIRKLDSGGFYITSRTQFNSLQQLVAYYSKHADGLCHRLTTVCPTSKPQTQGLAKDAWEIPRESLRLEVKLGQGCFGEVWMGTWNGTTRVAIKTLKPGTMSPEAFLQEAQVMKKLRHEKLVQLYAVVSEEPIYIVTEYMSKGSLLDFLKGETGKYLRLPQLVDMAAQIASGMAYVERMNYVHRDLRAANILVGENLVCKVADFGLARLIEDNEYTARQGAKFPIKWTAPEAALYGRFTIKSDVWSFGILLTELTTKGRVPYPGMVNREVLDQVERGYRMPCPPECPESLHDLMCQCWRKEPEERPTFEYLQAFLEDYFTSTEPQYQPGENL
Test: Kinase inhibition assay (TLC, 33P-ATP)
Type: biochemical
Conditions: TLC assay
measured.property: IC50 (nM)

O=c1[nH]c2cc3nc(-c4ccc5oc6ccccc6c5c4)n(CCCN4CCCCC4)c3cc2nc1-c1ccccc1 120

----------
Molecular target: Etk (Homo sapiens)
Construct: purchased Millipore Inc (Dundee, UK)
Experiment: Kinase inhibition assay (TLC, 33P-ATP)
Type: biochemical
Details: Etk; TLC assay

compound	result.unit	IC50
O=c1[nH]c2cc3nc(-c4ccc5oc6ccccc6c5c4)n(CCCN4CCCCC4)c3cc2nc1-c1ccccc1 [CTA095]	nM	60

----------
Biological target: Yes (Homo sapiens, UniProt P07947)
Construct: purchased Millipore Inc (Dundee, UK)
Sequence (P07947 whole entry): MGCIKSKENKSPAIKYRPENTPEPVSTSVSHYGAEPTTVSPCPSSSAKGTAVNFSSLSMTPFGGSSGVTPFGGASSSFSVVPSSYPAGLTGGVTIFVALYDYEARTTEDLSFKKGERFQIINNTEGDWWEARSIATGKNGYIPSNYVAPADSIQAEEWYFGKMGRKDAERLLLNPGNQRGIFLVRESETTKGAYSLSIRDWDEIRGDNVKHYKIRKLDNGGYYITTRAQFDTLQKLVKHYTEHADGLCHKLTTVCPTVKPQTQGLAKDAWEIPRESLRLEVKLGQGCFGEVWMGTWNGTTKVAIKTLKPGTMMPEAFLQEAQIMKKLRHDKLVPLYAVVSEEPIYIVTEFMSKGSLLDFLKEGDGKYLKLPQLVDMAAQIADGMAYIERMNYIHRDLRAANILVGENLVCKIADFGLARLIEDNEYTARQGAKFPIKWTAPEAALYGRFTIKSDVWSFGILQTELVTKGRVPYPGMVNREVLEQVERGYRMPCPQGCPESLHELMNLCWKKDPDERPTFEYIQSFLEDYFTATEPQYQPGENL
Experiment: Kinase inhibition assay (TLC, 33P-ATP)
Type: biochemical

compound	IC50
O=c1[nH]c2cc3nc(-c4ccc5oc6ccccc6c5c4)n(CCCN4CCCCC4)c3cc2nc1-c1ccccc1 [CTA095]	> 10 µM

----------
Biological target: EGFR (Homo sapiens, UniProt P00533)
Sequence (P00533 25-1210, species assumed): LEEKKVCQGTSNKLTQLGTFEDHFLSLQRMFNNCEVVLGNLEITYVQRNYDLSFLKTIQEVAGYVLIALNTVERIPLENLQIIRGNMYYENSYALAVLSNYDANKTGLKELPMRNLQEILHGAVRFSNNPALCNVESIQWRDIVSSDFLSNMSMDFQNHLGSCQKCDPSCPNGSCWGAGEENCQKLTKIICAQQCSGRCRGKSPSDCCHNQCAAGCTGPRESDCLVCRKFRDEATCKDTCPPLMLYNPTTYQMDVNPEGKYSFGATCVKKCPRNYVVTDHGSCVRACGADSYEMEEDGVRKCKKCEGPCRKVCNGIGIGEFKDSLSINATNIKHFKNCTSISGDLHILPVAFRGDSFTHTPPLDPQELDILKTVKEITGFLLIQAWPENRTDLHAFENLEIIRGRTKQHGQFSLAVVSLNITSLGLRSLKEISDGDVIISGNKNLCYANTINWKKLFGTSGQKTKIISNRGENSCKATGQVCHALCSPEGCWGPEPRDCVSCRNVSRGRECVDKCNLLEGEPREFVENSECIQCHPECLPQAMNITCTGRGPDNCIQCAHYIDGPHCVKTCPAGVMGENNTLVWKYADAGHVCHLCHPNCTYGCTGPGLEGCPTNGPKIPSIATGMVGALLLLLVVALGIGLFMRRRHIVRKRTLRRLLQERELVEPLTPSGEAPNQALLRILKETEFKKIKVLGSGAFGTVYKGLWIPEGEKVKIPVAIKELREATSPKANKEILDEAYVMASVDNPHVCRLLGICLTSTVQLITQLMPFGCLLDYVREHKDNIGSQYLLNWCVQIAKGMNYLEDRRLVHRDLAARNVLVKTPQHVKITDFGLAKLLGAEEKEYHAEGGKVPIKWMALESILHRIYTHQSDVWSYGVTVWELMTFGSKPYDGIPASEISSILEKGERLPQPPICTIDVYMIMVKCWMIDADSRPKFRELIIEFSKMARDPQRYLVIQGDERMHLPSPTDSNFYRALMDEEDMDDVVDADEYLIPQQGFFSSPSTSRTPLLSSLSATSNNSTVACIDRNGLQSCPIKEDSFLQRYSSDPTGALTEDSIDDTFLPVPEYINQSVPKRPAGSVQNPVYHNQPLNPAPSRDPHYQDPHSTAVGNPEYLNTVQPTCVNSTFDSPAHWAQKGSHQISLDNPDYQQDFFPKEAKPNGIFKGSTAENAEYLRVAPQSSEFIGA
measured.property: IC50

O=c1[nH]c2cc3nc(-c4ccc5oc6ccccc6c5c4)n(CCCN4CCCCC4)c3cc2nc1-c1ccccc1 > 10 µM

----------
Molecular target: Etk (Homo sapiens, UniProt P51813)
Construct: purchased Millipore Inc (Dundee, UK)
Sequence (P51813 whole entry): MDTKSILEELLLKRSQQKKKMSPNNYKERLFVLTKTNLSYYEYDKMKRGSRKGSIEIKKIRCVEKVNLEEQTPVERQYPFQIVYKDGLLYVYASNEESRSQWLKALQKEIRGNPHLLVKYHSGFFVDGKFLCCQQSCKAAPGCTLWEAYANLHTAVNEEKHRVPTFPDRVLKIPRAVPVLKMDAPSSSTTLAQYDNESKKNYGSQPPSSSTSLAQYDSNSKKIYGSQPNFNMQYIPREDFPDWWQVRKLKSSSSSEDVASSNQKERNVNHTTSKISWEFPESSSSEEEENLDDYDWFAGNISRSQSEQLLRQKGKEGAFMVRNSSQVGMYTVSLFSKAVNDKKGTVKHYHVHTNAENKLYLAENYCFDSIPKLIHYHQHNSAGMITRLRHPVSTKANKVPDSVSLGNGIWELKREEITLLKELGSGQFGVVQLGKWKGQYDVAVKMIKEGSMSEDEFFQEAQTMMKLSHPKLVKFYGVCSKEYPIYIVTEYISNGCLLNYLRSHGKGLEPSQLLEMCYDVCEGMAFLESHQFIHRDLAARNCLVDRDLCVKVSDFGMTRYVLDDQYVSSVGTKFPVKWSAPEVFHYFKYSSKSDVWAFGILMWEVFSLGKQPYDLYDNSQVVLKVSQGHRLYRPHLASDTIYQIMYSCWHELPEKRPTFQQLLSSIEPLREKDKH
Experiment: Kinase inhibition assay (TLC, 33P-ATP)
Format: biochemical
Settings: Etk; TLC, peptide YIYGSFK, 33P-ATP
measured.property: IC50

O=c1[nH]c2cc3nc(-c4ccc5oc6ccccc6c5c4)n(CCCN4CCCCC4)c3cc2nc1-c1ccccc1 ~0.06 µM

----------
Test system: LNCAP cells
Assay: MTT growth inhibition assay
Assay type: cell-based
Details: Homo sapiens, 72 h
pIC50: −log10 of the molar value.
measured.property: pIC50

O=c1[nH]c2cc3nc(-c4ccc5oc6ccccc6c5c4)n(CCCN4CCCCC4)c3cc2nc1-c1ccccc1 5.42

----------
Biological target: Mer (Homo sapiens)
Sequence (Q12866 21-999): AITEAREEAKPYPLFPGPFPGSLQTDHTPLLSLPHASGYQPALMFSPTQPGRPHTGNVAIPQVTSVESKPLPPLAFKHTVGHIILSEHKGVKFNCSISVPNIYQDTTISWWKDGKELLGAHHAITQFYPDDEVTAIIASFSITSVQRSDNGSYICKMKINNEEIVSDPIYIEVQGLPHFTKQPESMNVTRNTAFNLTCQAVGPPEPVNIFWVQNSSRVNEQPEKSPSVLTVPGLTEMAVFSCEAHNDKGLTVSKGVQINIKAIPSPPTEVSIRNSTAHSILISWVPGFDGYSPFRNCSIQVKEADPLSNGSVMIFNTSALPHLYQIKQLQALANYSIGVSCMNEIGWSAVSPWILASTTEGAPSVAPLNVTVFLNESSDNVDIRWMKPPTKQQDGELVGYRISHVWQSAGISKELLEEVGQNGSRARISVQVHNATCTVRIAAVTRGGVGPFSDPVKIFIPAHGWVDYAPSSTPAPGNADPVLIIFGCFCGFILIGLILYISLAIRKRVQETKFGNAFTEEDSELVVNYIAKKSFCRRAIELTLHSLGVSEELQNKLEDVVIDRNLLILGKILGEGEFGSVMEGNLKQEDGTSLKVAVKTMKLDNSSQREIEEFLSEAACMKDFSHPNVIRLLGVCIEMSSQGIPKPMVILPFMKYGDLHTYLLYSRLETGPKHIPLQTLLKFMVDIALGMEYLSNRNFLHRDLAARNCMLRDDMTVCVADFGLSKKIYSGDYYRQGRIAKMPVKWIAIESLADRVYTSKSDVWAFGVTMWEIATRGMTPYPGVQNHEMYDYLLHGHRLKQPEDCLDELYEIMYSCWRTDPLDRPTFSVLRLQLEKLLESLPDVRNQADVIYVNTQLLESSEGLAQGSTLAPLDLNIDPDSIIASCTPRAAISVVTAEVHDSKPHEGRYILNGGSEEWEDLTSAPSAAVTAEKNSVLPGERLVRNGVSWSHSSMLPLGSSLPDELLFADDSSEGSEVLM
pIC50: −log10 of the molar value.
measured.property: pIC50

O=c1[nH]c2cc3nc(-c4ccc5oc6ccccc6c5c4)n(CCCN4CCCCC4)c3cc2nc1-c1ccccc1 < 5.00
